# Test system: Aspergillus fumigatus
# ASSAY_PROTOCOL: Antifungal activity against Aspergillus fumigatus AF98003
# Assay type: functional
EXPERIMENTAL_READOUT: MIC80 (µg/mL)
State the answer as a number, implicitly in µg/mL.

As a guide, the following entries are already answered.
> print(dat)
                                   compound  number
1  OC(CNCc1ccc(C(F)(F)F)cc1)(Cn1cncn1)c1ccc(Cl)cc1Cl (centres undefined)      24
2  O=[N+]([O-])c1ccc(CNCC(O)(Cn2cncn2)c2ccc(Cl)cc2Cl)cc1 (centres undefined)      27
3  CN(Cc1ccc(C(F)(F)F)cc1)CC(O)(Cn1cncn1)c1ccc(Cl)cc1Cl (centres undefined)    21.1

Consider the compound CN(Cc1ccc([N+](=O)[O-])cc1)CC(O)(Cn1cncn1)c1ccc(Cl)cc1Cl (centres undefined) and give its measured MIC80.
1.96

Give its MIC80 value. Item: Nc1ccc(CNCC(O)(Cn2cncn2)c2ccc(Cl)cc2Cl)cc1 (centres undefined)
3.06

Can you share its MIC80? I mean this compound: N#Cc1ccc(CNCC(O)(Cn2cncn2)c2ccc(Cl)cc2Cl)cc1 (centres undefined)
4.02

Any idea what MIC80 was measured for CN(Cc1ccc(N)cc1)CC(O)(Cn1cncn1)c1ccc(Cl)cc1Cl (centres undefined) ?
2.32

Suppose we examine the compound CCC(C)n1ncn(-c2ccc(N3CCN(c4ccc(OC[C@H]5CO[C@](Cn6cncn6)(c6ccc(Cl)cc6Cl)O5)cc4)CC3)cc2)c1=O (some centres undefined) ; what MIC80 value has been reported?
0.42

Tell me the measured MIC80 of CN(Cc1ccc(C#N)cc1)CC(O)(Cn1cncn1)c1ccc(Cl)cc1Cl (centres undefined) , please.
2.41
